Cited source for all entries: ChEMBL document CHEMBL1135915

- targetDesc: UniProt P08908
- Sequence (P08908 whole entry): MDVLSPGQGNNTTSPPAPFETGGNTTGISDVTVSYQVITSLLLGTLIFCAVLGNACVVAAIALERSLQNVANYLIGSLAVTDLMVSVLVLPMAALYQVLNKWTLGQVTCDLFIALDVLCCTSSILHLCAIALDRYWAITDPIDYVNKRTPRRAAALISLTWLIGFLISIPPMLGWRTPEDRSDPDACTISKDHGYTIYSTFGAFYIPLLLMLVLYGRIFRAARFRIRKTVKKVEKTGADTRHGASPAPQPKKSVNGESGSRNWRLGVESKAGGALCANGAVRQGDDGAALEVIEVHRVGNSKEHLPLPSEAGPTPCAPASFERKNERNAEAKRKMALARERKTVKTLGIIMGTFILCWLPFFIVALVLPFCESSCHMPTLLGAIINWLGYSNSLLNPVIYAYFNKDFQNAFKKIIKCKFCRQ
- experimentDescription: Affinity constant on HeLa cells expressing Human recombinant 5-hydroxytryptamine receptor 1A
propertyName: Ki (nM)

{"columns": ["compound", "targetDesc", "Ki / nM"],
 "data": [
  ["COc1cccc(OC)c1OCCNC[C@@H]1C[C@H](c2ccccc2)c2ccccc2O1", "UniProt P08908", 6.46],
  ["COc1cccc(OC)c1OCCNCCOc1ccccc1Cc1ccccc1", "UniProt P08908", 10.7],
  ["COc1cccc(OC)c1OCCNCC1CC(c2ccccc2)c2ccccc2C1=O (configuration not stated)", "UniProt P08908", 11]
]}

P: COc1cccc(OC)c1OCCNCC1CC(c2ccccc2)c2ccccc2S1 (configuration not stated)
Q: COc1cccc(OC)c1OCCNCC1Cc2ccccc2C(c2ccccc2)C1 (configuration not stated)
R: COc1cccc(OC)c1OCCNC[C@H]1C[C@H](c2ccccc2)c2ccccc2S1
S: COc1ccccc1N1CCN(CCN2C(=O)CC3(CCCC3)CC2=O)CC1 [BMY-7378]
## Task Exam item: list the entries in increasing order of Ki. Give the order by naming the labels one after another as requested.
## Result S, Q, R, P
